The values you see were collected from paper PMC3337761.

Procedure Text: Pharmacokinetics in rhesus macaques
Type: in vivo, Rhesus Macaques (Macaca mulatta)
Details: male, rhesus monkey, plasma, iv, 5 mg/kg
Endpoint Name: clearance (L/h/kg)

{"Compound Structure": "Clc1ccccc1C(c1ccccc1)(c1ccccc1)n1cccn1", "Units Label": "L/h/kg", "Result Value": 3.2}

* * *

Procedure Text: Pharmacokinetics in rhesus macaques
Assay type: in vivo, Rhesus Macaques (Macaca mulatta)
Details: male, rhesus monkey, plasma, po, 50 mg/kg
Endpoint Name: Tmax

{"Compound Structure": "Clc1ccccc1C(c1ccccc1)(c1ccccc1)n1cccn1", "Result Value": "2 h"}

* * *

Procedure Text: Pharmacokinetics in rhesus macaques
Assay type: in vivo, Rhesus Macaques (Macaca mulatta)
Details: male, rhesus monkey, plasma, iv, 5 mg/kg

{"Compound": "Clc1ccccc1C(c1ccccc1)(c1ccccc1)n1cccn1 [TRAM-34]", "Vd [L/kg]": 11.1}

* * *

Procedure Text: Solubility in solvents
Assay type: physicochemical
Details: ethanol, organic solvent or mixture

{"Molecule": "Clc1ccccc1C(c1ccccc1)(c1ccccc1)n1cccn1 [TRAM-34]", "solubility [µg/mL]": 4000}

* * *

Procedure Text: Pharmacokinetics in rhesus macaques
Type: in vivo, Rhesus Macaques (Macaca mulatta)
Details: male, rhesus monkey, plasma, iv, 5 mg/kg

{"Compound Structure": "Clc1ccccc1C(c1ccccc1)(c1ccccc1)n1cccn1", "AUC(0-t), µM·h": 3.64}
